- protocol_summary: NCI Yeast Anticancer Drug Screen. Data for the bub3 strain (AID 167)
- measurement_parameters: S. cerevisiae bub3 mutant strain, at 50.0 µM, stronger effect = higher value
The panel holds about 79,000 compounds, 15% with a hit somewhere; the sample as a whole holds those more often.
If the reported growth inhibition equals or exceeds 10%, assign Yes. If not, assign No.

In: Does the reported growth inhibition for `COc1ccc(NC(=S)Nc2ccccc2)cc1` fall at or above the 10% mark?
Out: No

In: Could you verify whether the entry `CCCCCO/C=C/CN1CCOCC1` shows growth inhibition of no less than 10%?
Out: Yes

In: hey, is growth inhibition for this one >= 10%? `CCOC(=O)NC(=O)c1cn(CC(=O)NCC(=O)NCC(=O)N2CCN(CCn3c(C)nc(C(N)=O)c3N)CC2)c(=O)[nH]c1=O`
Out: No

In: Threshold query (growth inhibition >= 10%) on CSc1nc(NC2OCC(OC(C)=O)C(OC(C)=O)C2OC(C)=O)c(N=CC=Nc2c(NC3OCC(OC(C)=O)C(OC(C)=O)C3OC(C)=O)nc(SC)[nH]c2=O)c(=O)[nH]1 (configuration not stated)
Out: No

In: Is the recorded value of growth inhibition equal to or greater than 10% for this molecule? `CCN(CC)CN1C(=O)C(=O)c2ccccc21`
Out: Yes

In: Does `CO[C@@]12C[C@@H](C)[C@]34O[C@H]3C[C@]3(C)O[C@]43CC1=C(C)C(=O)O2` have a reported growth inhibition of at least 10%?
Out: Yes

In: Has Cc1cc2c(cc1C)C(O)CCC(=O)N2 (configuration not stated) a recorded growth inhibition greater than or equal to 10%?
Out: Yes
